Quick reference: DC50 of the listed items.
Biological target: IKZF1 (Homo sapiens (Human), UniProt Q13422+Q96SW2)
Sequence (Q13422 whole entry, one chain of several): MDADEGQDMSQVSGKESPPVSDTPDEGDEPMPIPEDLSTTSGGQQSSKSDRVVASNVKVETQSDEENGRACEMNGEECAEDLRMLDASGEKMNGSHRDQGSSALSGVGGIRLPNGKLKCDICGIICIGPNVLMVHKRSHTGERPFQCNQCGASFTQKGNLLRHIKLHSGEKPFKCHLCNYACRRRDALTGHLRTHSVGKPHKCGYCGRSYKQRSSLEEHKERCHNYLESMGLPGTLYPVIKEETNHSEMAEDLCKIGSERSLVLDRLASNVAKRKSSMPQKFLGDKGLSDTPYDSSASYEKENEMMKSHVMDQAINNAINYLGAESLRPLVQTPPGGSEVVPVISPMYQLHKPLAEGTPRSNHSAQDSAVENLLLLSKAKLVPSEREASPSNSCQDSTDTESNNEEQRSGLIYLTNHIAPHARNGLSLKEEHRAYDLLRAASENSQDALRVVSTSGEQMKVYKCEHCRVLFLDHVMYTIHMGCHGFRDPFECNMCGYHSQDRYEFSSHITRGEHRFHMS
Assay: In vitro IKZF1 HiBit Assay (HEK293T Flp-in-HiBiT-IKZF1 stable cell line)
Format: cell-based
Conditions: HEK293T Flp-in-HiBiT-IKZF1 stable cell line, 6 hrs incubation; read-out: IKZF1 HiBit DC50

COMPOUND	DC50
CC(Oc1ccnc2c(CN3CCCC3)cc(-c3ccc4c(c3)CN(C3CCC(=O)NC3=O)C4=O)nc12)C(F)(F)F (centres unmarked)	> 10 µM
CO[C@H]1C[C@H](Oc2ccnc3c(CN4CCCC4)cc(-c4ccc5c(c4)CN(C4CCC(=O)NC4=O)C5=O)nc23)C1 (some centres unmarked)	> 10 µM
COC[C@@H]1CCCN1Cc1cc(-c2ccc3c(c2)CN(C2CCC(=O)NC2=O)C3=O)nc2c1ccn2C1COC1 (some centres unmarked)	> 10 µM
CC(=O)N1CC(n2ccc3c(CN4CCCC4)cc(-c4ccc5c(c4)CN(C4CCC(=O)NC4=O)C5=O)nc32)C1 (centres unmarked)	> 10 µM
O=C1CCC(N2Cc3cc(-c4cc(CN5CCCC5)c5cnn(C6COC6)c5n4)ccc3C2=O)C(=O)N1 (centres unmarked)	0.01 to 0.1 µM
O=C1CCC(N2Cc3cc(-c4cc(CN5CCC(F)C5)c5ccn(C6COC6)c5n4)ccc3C2=O)C(=O)N1 (centres unmarked)	> 10 µM
O=C1CCC(N2Cc3cc(-c4cc(CN5CCCC5)c5ccn(C6COC6)c5n4)c(Cl)cc3C2=O)C(=O)N1 (centres unmarked)	> 10 µM
COc1n[nH]c2c(CN3CCCC3)cc(-c3ccc4c(c3)CN(C3CCC(=O)NC3=O)C4=O)nc12 (centres unmarked)	0.1 to 1 µM

### Prompt Return reported DC50; argument: O=C1CCC(N2Cc3c(ccc(-c4cc(CN5CCCC5)c5ccn(C6CS(=O)(=O)C6)c5n4)c3Cl)C2=O)C(=O)N1 (centres unmarked)
### Response > 10 µM

### Prompt Return reported DC50; argument: Cn1ccc2c(CN3CCCC3)c(Cl)c(-c3ccc4c(c3)CN(C3CCC(=O)NC3=O)C4=O)nc21 (centres unmarked)
### Response > 10 µM

---

Quick reference: Dmax of the listed items.
Molecular target: IKZF2 (Homo sapiens (Human), UniProt Q96SW2+Q9UKS7)
Sequence (Q9UKS7 whole entry): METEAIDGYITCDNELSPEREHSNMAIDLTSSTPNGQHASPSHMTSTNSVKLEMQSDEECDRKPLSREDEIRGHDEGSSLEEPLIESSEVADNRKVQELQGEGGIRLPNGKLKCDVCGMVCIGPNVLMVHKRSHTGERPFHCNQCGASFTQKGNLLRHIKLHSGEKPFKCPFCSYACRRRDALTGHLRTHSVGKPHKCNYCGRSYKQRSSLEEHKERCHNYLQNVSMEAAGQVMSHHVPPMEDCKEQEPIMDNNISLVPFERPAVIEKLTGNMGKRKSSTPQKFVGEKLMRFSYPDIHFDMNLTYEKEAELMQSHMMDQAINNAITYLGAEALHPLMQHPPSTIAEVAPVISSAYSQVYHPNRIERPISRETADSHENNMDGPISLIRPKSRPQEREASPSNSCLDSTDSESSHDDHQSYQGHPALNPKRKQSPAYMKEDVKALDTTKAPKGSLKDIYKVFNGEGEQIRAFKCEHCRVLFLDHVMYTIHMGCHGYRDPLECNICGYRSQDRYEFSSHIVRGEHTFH
Sequence (Q96SW2 whole entry): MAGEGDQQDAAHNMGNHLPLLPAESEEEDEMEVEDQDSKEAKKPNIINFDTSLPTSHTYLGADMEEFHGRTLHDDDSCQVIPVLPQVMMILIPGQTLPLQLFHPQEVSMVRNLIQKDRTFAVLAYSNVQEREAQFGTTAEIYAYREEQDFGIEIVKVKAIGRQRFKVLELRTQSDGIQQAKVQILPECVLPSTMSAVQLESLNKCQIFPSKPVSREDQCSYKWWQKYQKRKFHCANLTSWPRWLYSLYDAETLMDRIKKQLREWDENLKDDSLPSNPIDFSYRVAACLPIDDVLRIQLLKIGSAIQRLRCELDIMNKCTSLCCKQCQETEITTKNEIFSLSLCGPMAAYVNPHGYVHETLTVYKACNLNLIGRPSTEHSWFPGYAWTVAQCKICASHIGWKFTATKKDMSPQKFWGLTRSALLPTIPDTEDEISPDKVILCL
Sequence (Q16531 2-1140 partner): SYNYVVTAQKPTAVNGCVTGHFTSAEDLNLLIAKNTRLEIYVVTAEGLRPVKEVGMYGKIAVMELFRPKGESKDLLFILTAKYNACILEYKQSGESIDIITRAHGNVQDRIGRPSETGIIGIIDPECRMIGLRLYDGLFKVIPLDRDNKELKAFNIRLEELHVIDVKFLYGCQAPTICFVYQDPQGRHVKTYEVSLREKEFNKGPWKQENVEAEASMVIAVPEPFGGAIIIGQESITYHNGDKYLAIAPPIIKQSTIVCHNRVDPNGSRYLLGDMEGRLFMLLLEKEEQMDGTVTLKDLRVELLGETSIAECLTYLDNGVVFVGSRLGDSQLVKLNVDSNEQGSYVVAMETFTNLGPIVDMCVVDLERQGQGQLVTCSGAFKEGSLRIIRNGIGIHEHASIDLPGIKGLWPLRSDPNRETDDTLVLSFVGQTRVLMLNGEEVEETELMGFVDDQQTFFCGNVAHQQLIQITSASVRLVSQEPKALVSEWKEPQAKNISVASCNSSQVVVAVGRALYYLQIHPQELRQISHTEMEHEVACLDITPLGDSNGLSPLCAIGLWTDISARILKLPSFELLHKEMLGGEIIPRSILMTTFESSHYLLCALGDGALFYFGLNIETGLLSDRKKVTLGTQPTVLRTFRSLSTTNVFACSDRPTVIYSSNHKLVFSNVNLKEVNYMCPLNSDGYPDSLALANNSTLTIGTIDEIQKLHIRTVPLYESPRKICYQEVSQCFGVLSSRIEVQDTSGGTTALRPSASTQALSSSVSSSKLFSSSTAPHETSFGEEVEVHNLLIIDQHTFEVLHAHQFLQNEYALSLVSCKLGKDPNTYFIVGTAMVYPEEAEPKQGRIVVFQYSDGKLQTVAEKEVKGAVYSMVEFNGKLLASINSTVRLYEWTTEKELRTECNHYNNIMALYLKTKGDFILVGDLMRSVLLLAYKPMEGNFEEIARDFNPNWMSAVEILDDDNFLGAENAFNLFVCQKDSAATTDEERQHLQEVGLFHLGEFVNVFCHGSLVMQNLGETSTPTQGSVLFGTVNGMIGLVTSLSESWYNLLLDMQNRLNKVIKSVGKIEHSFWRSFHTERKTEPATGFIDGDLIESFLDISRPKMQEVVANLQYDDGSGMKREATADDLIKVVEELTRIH
Assay: In vitro IKZF2 HiBit Assay (HEK293T Flp-in-HiBiT cells)
Type: cell-based
Details: HEK-293T; HEK293T Flp-in-HiBiT cells, 6 hrs incubation; read-out: IKZF2 HiBit Dmax (%)

Example entries begin here.
COMPOUND	REPORTED_ENDPOINT	REPORTED
O=C1CCC(N2Cc3cc(-c4cc(CN5CCCC5)c5cnn(C6CCC6)c5n4)ccc3C2=O)C(=O)N1 (stereo not shown) [Example 206]	Dmax	> 80%
O=C1CCC(N2Cc3c(ccc(-c4nc5c(ccn5C5COC5)c(CN5CCCC5)c4Cl)c3F)C2=O)C(=O)N1 (stereo not shown) [Example 270]	Dmax	> 80%
Nc1n[nH]c2c(CN3CC(O)C3)cc(-c3ccc4c(c3)CN(C3CCC(=O)NC3=O)C4=O)nc12 (stereo not shown) [Example 213]	Dmax	40 to 60%
Cn1ccc2c(CN3CCC(C(F)(F)F)CC3)cc(-c3ccc4c(c3)CN(C3CCC(=O)NC3=O)C4=O)nc21 (stereo not shown) [Example 90]	Dmax	> 80%

### Prompt Return reported Dmax; argument: O=C1CCC(N2Cc3c(ccc(-c4cc(CN5CCCC5)c5ccn(C6CS(=O)(=O)C6)c5n4)c3Cl)C2=O)C(=O)N1 (stereo not shown) [Example 230]
### Response 60 to 80%

### Prompt Return reported Dmax; argument: Cn1ccc2c(CN3CCC(n4cccn4)CC3)cc(-c3ccc4c(c3)CN(C3CCC(=O)NC3=O)C4=O)nc21 (stereo not shown) [Example 94]
### Response 60 to 80%

### Prompt Return reported Dmax; argument: O=C1CCC(N2Cc3cc(-c4cc(CN5CCC(F)C5)c5ccn(C6COC6)c5n4)ccc3C2=O)C(=O)N1 (stereo not shown) [Example 157]
### Response > 80%

Where do the numbers come from? From patent US20250214991A1.
